measured.on: CYP2C9 (Homo sapiens, UniProt P11712)
Sequence (P11712 whole entry): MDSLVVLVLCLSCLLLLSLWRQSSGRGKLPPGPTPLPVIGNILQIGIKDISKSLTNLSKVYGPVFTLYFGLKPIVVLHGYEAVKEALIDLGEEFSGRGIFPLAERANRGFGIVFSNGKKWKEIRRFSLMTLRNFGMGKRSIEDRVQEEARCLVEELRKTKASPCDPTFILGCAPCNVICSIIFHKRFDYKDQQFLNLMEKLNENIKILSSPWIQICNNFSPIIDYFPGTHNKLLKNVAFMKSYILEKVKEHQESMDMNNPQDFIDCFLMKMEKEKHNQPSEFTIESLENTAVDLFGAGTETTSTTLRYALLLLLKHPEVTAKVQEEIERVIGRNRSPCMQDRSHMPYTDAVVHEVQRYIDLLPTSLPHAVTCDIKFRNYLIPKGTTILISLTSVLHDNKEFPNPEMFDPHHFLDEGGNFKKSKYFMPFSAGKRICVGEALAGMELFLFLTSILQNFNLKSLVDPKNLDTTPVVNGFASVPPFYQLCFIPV
protocol.text: Inhibition of CYP2C9 at 10 uM
Assay type: ADME
measured.property: inhibition at 10 µM (%)

1) NC(=O)c1cn2cc(-c3cnc(N)nc3)nc(N3CCOCC3)c2n1: 5

----------
measured.on: CYP3A4 (Homo sapiens)
Sequence (P08684 whole entry): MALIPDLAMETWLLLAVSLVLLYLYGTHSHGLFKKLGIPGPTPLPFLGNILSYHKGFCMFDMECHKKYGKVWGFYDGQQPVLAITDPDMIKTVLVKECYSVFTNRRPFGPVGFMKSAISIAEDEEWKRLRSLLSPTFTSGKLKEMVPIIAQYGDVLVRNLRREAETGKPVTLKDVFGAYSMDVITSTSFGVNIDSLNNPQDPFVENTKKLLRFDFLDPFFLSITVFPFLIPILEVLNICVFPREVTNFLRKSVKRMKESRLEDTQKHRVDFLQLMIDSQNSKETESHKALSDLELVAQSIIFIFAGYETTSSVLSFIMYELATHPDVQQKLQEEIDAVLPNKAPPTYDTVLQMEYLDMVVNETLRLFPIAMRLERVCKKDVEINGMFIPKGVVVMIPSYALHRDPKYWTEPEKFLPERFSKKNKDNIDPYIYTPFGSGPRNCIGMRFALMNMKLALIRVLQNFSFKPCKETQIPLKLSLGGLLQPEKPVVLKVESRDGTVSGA
protocol.text: Inhibition of CYP3A4 at 10 uM
Assay type: ADME
measured.property: inhibition at 10 µM (%)

1. NC(=O)c1cn2cc(-c3cnc(N)nc3)nc(N3CCOCC3)c2n1: 17

----------
measured.on: CYP1A2 (Homo sapiens, UniProt P05177)
Sequence (P05177 whole entry): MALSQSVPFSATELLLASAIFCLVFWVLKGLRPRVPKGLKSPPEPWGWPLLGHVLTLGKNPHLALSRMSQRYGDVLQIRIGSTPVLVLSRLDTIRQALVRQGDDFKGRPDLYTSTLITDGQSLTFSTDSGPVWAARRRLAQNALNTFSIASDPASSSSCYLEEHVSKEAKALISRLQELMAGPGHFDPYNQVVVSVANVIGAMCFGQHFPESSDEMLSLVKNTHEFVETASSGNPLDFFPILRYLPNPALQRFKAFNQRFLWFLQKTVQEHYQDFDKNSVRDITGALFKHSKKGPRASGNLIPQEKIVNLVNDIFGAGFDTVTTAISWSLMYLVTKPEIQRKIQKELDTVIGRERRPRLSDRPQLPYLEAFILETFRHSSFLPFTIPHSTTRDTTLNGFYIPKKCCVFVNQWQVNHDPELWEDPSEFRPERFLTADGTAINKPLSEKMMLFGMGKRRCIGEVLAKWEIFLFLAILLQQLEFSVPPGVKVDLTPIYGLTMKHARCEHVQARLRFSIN
protocol.text: Inhibition of CYP1A2 at 10 uM
Type: ADME
measured.property: inhibition at 10 µM (%)

1. NC(=O)c1cn2cc(-c3cnc(N)nc3)nc(N3CCOCC3)c2n1: 24
